test system: OVCAR-4 ovarian; assay: NCI-60 one-dose screen, 48 h; details: 10 µM unless noted
This is part of a sample that, as a whole, favours compounds with a hit. Of some 83,000 tested, about 20% had one in any assay. Active and inactive are the calls of the source. Rule for the calls: active = growth percent below 10; inactive = the rest.
A correct response names exactly one class from t (active), f (inactive)

Use these answered entries as a reference point.
MOLECULE: C[C@@H]1CC[C@@H]2[C@@H]1[C@H](OC(=O)/C=C/C1CCCCC1)[C@]1(C3CCCCC3)C[C@@H](OC(=O)CO)[C@@]2(C)O1
CLASS: f
--
MOLECULE: CCOCC1(CCc2ccccc2)C(=O)NC(=S)NC1=O
CLASS: f
--
MOLECULE: C[C@]12CC[C@H]3[C@@H](C[C@@H]4N=C(c5ccc(O)cc5)S[C@@]45C[C@H](O)CC[C@]35C)[C@@H]1CC[C@@H]2O
CLASS: f
--
MOLECULE: CO[C@@H]([CH2][Hg][S]C#N)[C@@H]([CH2][Hg][S]C#N)OC
CLASS: f

Problem: Write down the call the test reported for this molecule. Item: O=C(N/N=C/c1ccc(N(CCCl)CCCl)cc1)c1cc(=O)[nH]c(=O)[nH]1
Result: f

Problem: Write down the call the test reported for this molecule. Item: NC(=O)C(Br)CBr (stereo not given)
Result: t

Problem: Write down the call the test reported for this molecule. Item: Cn1cnnc1[S-].[Au+].c1ccc([PH+](c2ccccc2)c2ccccc2)cc1
Result: f
